Target: Phosphatidylinositol 4,5-bisphosphate 3-kinase catalytic subunit delta isoform (Homo sapiens)
Experiment: Selectivity ratio of IC50 for myristoylated PI3K-delta (unknown origin) overexpressed in Rat1 cells to IC50 for PI3K-delta (unknown origin)
Assay type: cell-based
Experimental Endpoint: Ratio IC50

Query: Which Ratio IC50 value is on record for COc1ccc(-c2ccc3ncnc(O[C@H]4CCN(C(=O)OC(C)(C)C)C4)c3c2)cc1OC ?
Reply: 4

Query: Which Ratio IC50 value is on record for CCC(=O)N1CC[C@H](Oc2ccnc3ccc(-c4ccc(OC)nc4)nc23)C1 ?
Reply: 29

Query: Which Ratio IC50 value is on record for COc1ccc(-c2ccc3ncnc(O[C@H]4CCN(C(C)=O)C4)c3c2)cc1OC ?
Reply: 5

Query: Which Ratio IC50 value is on record for CCC(=O)N1CC[C@H](Oc2cnnc3ccc(-c4ccc(OC)nc4)cc23)C1 ?
Reply: 13

Query: Which Ratio IC50 value is on record for CCC(=O)N1CC[C@@H](Oc2cnc3ccc(-c4ccc(OC)c(OC)c4)cc3n2)C1 ?
Reply: 5

Query: Which Ratio IC50 value is on record for CCC(=O)N1CC[C@H](Oc2ncnc3ccc(-c4cnc(OC)c(C#N)c4)cc23)C1 ?
Reply: 16

Query: Which Ratio IC50 value is on record for CCC(=O)N1CC[C@H](Oc2ccnc3ccc(-c4ccc(OC)nc4)cc23)C1 ?
Reply: 15

Query: Which Ratio IC50 value is on record for CCC(=O)N1CC[C@H](Oc2ncnc3ccc(-c4ccc(OC)nc4)cc23)C1 ?
Reply: 3
